Data origin, for the record: patent US12091402B2

Target: ASGPR (Homo sapiens, UniProt P07306)
Assay: Affinity to ASGPR by surface plasmon resonance (SPR)
Reported Kd values follow for various molecules

test_smiles=CN(c1nccc(C(F)(F)F)n1)[C@H]1CO[C@H](CO)[C@H](O)[C@@H]1O measured="1000 to 10000 nM"
test_smiles=O=C(NC[C@H]1OC[C@H](Nc2cncc(C(F)(F)F)n2)[C@@H](O)[C@H]1O)C12CC(C1)C2 measured="< 1000 nM"
test_smiles=O=[N+]([O-])c1ccc(NCCOCCOCCOCCOC[C@H]2OC[C@@H](Nc3nc(Cl)ns3)[C@@H](O)[C@H]2O)c([N+](=O)[O-])c1 measured="< 100 nM"
test_smiles=C=CCO[C@H]1O[C@H](Cn2cc(-c3cccc(OC)c3)nn2)[C@H](O)[C@H](O)[C@H]1Nc1nccc(C(F)(F)F)n1 measured="1000 to 10000 nM"
test_smiles=OC[C@@]12CO[C@@H](O1)[C@H](Nc1cc(Cl)cnc1Cl)[C@@H](O)[C@H]2O measured="< 1000 nM"

Look up Kd: COc1cc(N[C@H]2[C@H]3OC[C@](CO)(O3)[C@H](O)[C@@H]2O)nc(C(F)(F)F)n1 < 1000 nM

Look up Kd: C[C@@H]1O[C@H](CO)[C@H](O)[C@H](O)[C@H]1Nc1nccc(C(F)(F)F)n1 10000 to 100000 nM

Look up Kd: O=C(O)COCCOCC(=O)NC(COCCC(=O)NCCOCCOCCOCCOC[C@H]1OC[C@H](Nc2nccc(C(F)(F)F)n2)[C@@H](O)[C@H]1O)COCCC(=O)NCCOCCOCCOCCOC[C@H]1OC[C@H](Nc2nccc(C(F)(F)F)n2)[C@@H](O)[C@H]1O < 100 nM

====

Target: ASGPR (Homo sapiens)
Sequence (P07306 1-291): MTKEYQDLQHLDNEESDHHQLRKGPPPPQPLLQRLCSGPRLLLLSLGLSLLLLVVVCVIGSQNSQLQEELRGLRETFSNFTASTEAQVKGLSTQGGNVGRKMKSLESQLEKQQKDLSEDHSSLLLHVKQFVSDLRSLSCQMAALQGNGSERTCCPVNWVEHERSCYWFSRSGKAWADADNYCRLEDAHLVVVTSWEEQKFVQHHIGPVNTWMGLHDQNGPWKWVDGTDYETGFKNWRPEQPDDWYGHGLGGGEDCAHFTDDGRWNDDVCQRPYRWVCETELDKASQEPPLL
Assay: Affinity to ASGPR by surface plasmon resonance (SPR)
pKd: −log10 of the molar value.
Reported pKd values follow for various compounds

test_smiles=CC(C)C[C@@H]1NC(=O)[C@H](Cc2cnc[nH]2)NC(=O)[C@H](Cc2c[nH]c3ccccc23)NC(=O)[C@H](C)NC(=O)[C@@H]2CSSC[C@H](NC(=O)[C@H](Cc3c[nH]c4ccccc34)NC(=O)[C@H](C(C)C)NC(=O)[C@H](CC(C)C)NC(=O)[C@H](CCC(=O)O)NC(=O)CNC1=O)C(=O)N[C@@H]([C@@H](C)O)C(=O)N1CCC[C@@H]1C(=O)N1C[C@@H](NC(=O)CCCc3cn(C[C@H]4OC[C@H](Nc5cncc(C(F)(F)F)n5)[C@@H](O)[C@H]4O)nn3)C[C@H]1C(=O)N[C@@H](CC(=O)O)C(=O)N2 endpoint=pKd measured="> 7.00"
test_smiles=N#Cc1cc(N[C@H]2[C@H]3OC[C@](CO)(O3)[C@H](O)[C@@H]2O)cnc1Cl endpoint=pKd measured="5.00 to 6.00"

Look up pKd: OC[C@H]1OC[C@H](Nc2cc(C(F)(F)F)nc(Cl)n2)[C@@H](O)[C@H]1O < 4.70

Look up pKd: O=[N+]([O-])c1ccc(NCCOCCOCCOCCOC[C@@]23CO[C@@H](O2)[C@H](Nc2nc(Cl)ns2)[C@@H](O)[C@H]3O)c([N+](=O)[O-])c1 > 7.00
